- experiment-notes: Stability experiment: purity after 10 days of humidity, heat or light
- Assay type: physicochemical
- protocol-conditions: 60° C. for 10 days
endpoint: purity
Give the figure by itself; no unit, no explanation.

What value of purity has been reported for the following compound? C=CC(=O)Nc1cc(N2CCN(CC)C3(CC3)C2)ccc1Nc1cc(N(C)C(=O)Nc2c(Cl)c(OC)cc(OC)c2Cl)ncn1 [Crystal form D]
99.49

Follow-up entry: C=CC(=O)Nc1cc(N2CCN(CC)C3(CC3)C2)ccc1Nc1cc(N(C)C(=O)Nc2c(Cl)c(OC)cc(OC)c2Cl)ncn1 [Crystal form E]
99.52

Follow-up entry: C=CC(=O)Nc1cc(N2CCN(CC)C3(CC3)C2)ccc1Nc1cc(N(C)C(=O)Nc2c(Cl)c(OC)cc(OC)c2Cl)ncn1 [Amorphous form]
94.73

====

Consider the following compounds and their measured purity readings.
- experiment-notes: Stability experiment: purity after 10 days of humidity, heat or light
- Assay type: physicochemical
- protocol-conditions: Light for 10 days
Give the figure by itself; no unit, no explanation.

In [3]: df
Out[3]:
                                   compound  reported_measurement
0  C=CC(=O)Nc1cc(N2CCN(CC)C3(CC3)C2)ccc1Nc1cc(N(C)C(=O)Nc2c(Cl)c(OC)cc(OC)c2Cl)ncn1 [Crystal form C]                 99.70
1  C=CC(=O)Nc1cc(N2CCN(CC)C3(CC3)C2)ccc1Nc1cc(N(C)C(=O)Nc2c(Cl)c(OC)cc(OC)c2Cl)ncn1 [Crystal form B]                 99.73
2  C=CC(=O)Nc1cc(N2CCN(CC)C3(CC3)C2)ccc1Nc1cc(N(C)C(=O)Nc2c(Cl)c(OC)cc(OC)c2Cl)ncn1 [Amorphous form]                 94.97
3  C=CC(=O)Nc1cc(N2CCN(CC)C3(CC3)C2)ccc1Nc1cc(N(C)C(=O)Nc2c(Cl)c(OC)cc(OC)c2Cl)ncn1 [Crystal form A]                 99.87
4  C=CC(=O)Nc1cc(N2CCN(CC)C3(CC3)C2)ccc1Nc1cc(N(C)C(=O)Nc2c(Cl)c(OC)cc(OC)c2Cl)ncn1 [Crystal form D]                 99.53

Now let's try a different one.
What value of purity has been reported for the following compound? C=CC(=O)Nc1cc(N2CCN(CC)C3(CC3)C2)ccc1Nc1cc(N(C)C(=O)Nc2c(Cl)c(OC)cc(OC)c2Cl)ncn1 [Crystal form E]
99.55

====

- experiment-notes: Fluidity test (angle of repose)
- Assay type: physicochemical
- protocol-conditions: measurement 3
- Excerpt: […]
endpoint: angle of repose (°)
The reply should contain only the number, in °.

In the examples that follow, each entry is paired with its recorded angle of repose.
                                   compound  reported_measurement
0  C=CC(=O)Nc1cc(N2CCN(CC)C3(CC3)C2)ccc1Nc1cc(N(C)C(=O)Nc2c(Cl)c(OC)cc(OC)c2Cl)ncn1 [Amorphous form]                  41.9
1  C=CC(=O)Nc1cc(N2CCN(CC)C3(CC3)C2)ccc1Nc1cc(N(C)C(=O)Nc2c(Cl)c(OC)cc(OC)c2Cl)ncn1 [Crystal form D]                  35.1
2  C=CC(=O)Nc1cc(N2CCN(CC)C3(CC3)C2)ccc1Nc1cc(N(C)C(=O)Nc2c(Cl)c(OC)cc(OC)c2Cl)ncn1 [Crystal form A]                  33.7

What value of angle of repose has been reported for the following compound? C=CC(=O)Nc1cc(N2CCN(CC)C3(CC3)C2)ccc1Nc1cc(N(C)C(=O)Nc2c(Cl)c(OC)cc(OC)c2Cl)ncn1 [Crystal form C]
33.9

Follow-up entry: C=CC(=O)Nc1cc(N2CCN(CC)C3(CC3)C2)ccc1Nc1cc(N(C)C(=O)Nc2c(Cl)c(OC)cc(OC)c2Cl)ncn1 [Crystal form B]
35.2

Follow-up entry: C=CC(=O)Nc1cc(N2CCN(CC)C3(CC3)C2)ccc1Nc1cc(N(C)C(=O)Nc2c(Cl)c(OC)cc(OC)c2Cl)ncn1 [Crystal form E]
35.9

====

- experiment-notes: Fluidity test (angle of repose)
- Format: physicochemical
- protocol-conditions: measurement 1
Consider the following molecules and their measured angle of repose readings.
The reply should contain only the number, in °.

What value of angle of repose has been reported for the following molecule? C=CC(=O)Nc1cc(N2CCN(CC)C3(CC3)C2)ccc1Nc1cc(N(C)C(=O)Nc2c(Cl)c(OC)cc(OC)c2Cl)ncn1 [Crystal form D]
35.6

Follow-up entry: C=CC(=O)Nc1cc(N2CCN(CC)C3(CC3)C2)ccc1Nc1cc(N(C)C(=O)Nc2c(Cl)c(OC)cc(OC)c2Cl)ncn1 [Crystal form C]
34.2

Follow-up entry: C=CC(=O)Nc1cc(N2CCN(CC)C3(CC3)C2)ccc1Nc1cc(N(C)C(=O)Nc2c(Cl)c(OC)cc(OC)c2Cl)ncn1 [Amorphous form]
43.3

Follow-up entry: C=CC(=O)Nc1cc(N2CCN(CC)C3(CC3)C2)ccc1Nc1cc(N(C)C(=O)Nc2c(Cl)c(OC)cc(OC)c2Cl)ncn1 [Crystal form A]
33.4

Follow-up entry: C=CC(=O)Nc1cc(N2CCN(CC)C3(CC3)C2)ccc1Nc1cc(N(C)C(=O)Nc2c(Cl)c(OC)cc(OC)c2Cl)ncn1 [Crystal form B]
34.6

Follow-up entry: C=CC(=O)Nc1cc(N2CCN(CC)C3(CC3)C2)ccc1Nc1cc(N(C)C(=O)Nc2c(Cl)c(OC)cc(OC)c2Cl)ncn1 [Crystal form E]
35.5

====

Consider the following compounds and their measured purity readings.
- experiment-notes: Stability experiment: purity after 10 days of humidity, heat or light
- Type: physicochemical
- protocol-conditions: Day 0
Give the figure by itself; no unit, no explanation.

                                   compound  endpoint  reported_measurement
0  C=CC(=O)Nc1cc(N2CCN(CC)C3(CC3)C2)ccc1Nc1cc(N(C)C(=O)Nc2c(Cl)c(OC)cc(OC)c2Cl)ncn1 [Crystal form C]    purity                 99.72
1  C=CC(=O)Nc1cc(N2CCN(CC)C3(CC3)C2)ccc1Nc1cc(N(C)C(=O)Nc2c(Cl)c(OC)cc(OC)c2Cl)ncn1 [Crystal form D]    purity                 99.55
2  C=CC(=O)Nc1cc(N2CCN(CC)C3(CC3)C2)ccc1Nc1cc(N(C)C(=O)Nc2c(Cl)c(OC)cc(OC)c2Cl)ncn1 [Amorphous form]    purity                 95.33

What value of purity has been reported for the following compound? C=CC(=O)Nc1cc(N2CCN(CC)C3(CC3)C2)ccc1Nc1cc(N(C)C(=O)Nc2c(Cl)c(OC)cc(OC)c2Cl)ncn1 [Crystal form B]
99.75

Follow-up entry: C=CC(=O)Nc1cc(N2CCN(CC)C3(CC3)C2)ccc1Nc1cc(N(C)C(=O)Nc2c(Cl)c(OC)cc(OC)c2Cl)ncn1 [Crystal form A]
99.87

Follow-up entry: C=CC(=O)Nc1cc(N2CCN(CC)C3(CC3)C2)ccc1Nc1cc(N(C)C(=O)Nc2c(Cl)c(OC)cc(OC)c2Cl)ncn1 [Crystal form E]
99.56

====

- experiment-notes: Stability experiment: purity after 10 days of humidity, heat or light
- Assay type: physicochemical
- protocol-conditions: 40° C. for 10 days
Consider the following compounds and their measured purity readings.
Give the figure by itself; no unit, no explanation.

In the examples that follow, each entry is paired with its recorded purity.
In [3]: df
Out[3]:
                                   compound  endpoint  reported_measurement
0  C=CC(=O)Nc1cc(N2CCN(CC)C3(CC3)C2)ccc1Nc1cc(N(C)C(=O)Nc2c(Cl)c(OC)cc(OC)c2Cl)ncn1 [Amorphous form]    purity                 94.67
1  C=CC(=O)Nc1cc(N2CCN(CC)C3(CC3)C2)ccc1Nc1cc(N(C)C(=O)Nc2c(Cl)c(OC)cc(OC)c2Cl)ncn1 [Crystal form C]    purity                 99.66
2  C=CC(=O)Nc1cc(N2CCN(CC)C3(CC3)C2)ccc1Nc1cc(N(C)C(=O)Nc2c(Cl)c(OC)cc(OC)c2Cl)ncn1 [Crystal form B]    purity                 99.69
3  C=CC(=O)Nc1cc(N2CCN(CC)C3(CC3)C2)ccc1Nc1cc(N(C)C(=O)Nc2c(Cl)c(OC)cc(OC)c2Cl)ncn1 [Crystal form A]    purity                 99.83
4  C=CC(=O)Nc1cc(N2CCN(CC)C3(CC3)C2)ccc1Nc1cc(N(C)C(=O)Nc2c(Cl)c(OC)cc(OC)c2Cl)ncn1 [Crystal form D]    purity                 99.52

Now let's try a different one.
What value of purity has been reported for the following compound? C=CC(=O)Nc1cc(N2CCN(CC)C3(CC3)C2)ccc1Nc1cc(N(C)C(=O)Nc2c(Cl)c(OC)cc(OC)c2Cl)ncn1 [Crystal form E]
99.53
